# System: Streptococcus pyogenes
# ASSAY DETAILS: Antibacterial activity against Streptococcus pyogenes MTCC 442 by conventional broth microdilution method
# Format: functional
MEASURED METRIC: MIC
Field: value (include unit after the number)

Example compounds with recorded MIC:
N#CCCSC1=NC(c2cccc(Cl)c2)=CC(c2cc3cc(Cl)ccc3nc2Cl)N1 (stereo unspecified): 500 µg/mL
N#CCCSC1=NC(c2ccc([N+](=O)[O-])cc2)=CC(c2cc3cc(Cl)ccc3nc2Cl)N1 (stereo unspecified): 500 µg/mL
N#CCCSC1=NC(c2cccc(O)c2)=CC(c2cc3cc(Cl)ccc3nc2Cl)N1 (stereo unspecified): 100 µg/mL
COc1cccc(C2=CC(c3cc4cc(Cl)ccc4nc3Cl)NC(SCCC#N)=N2)c1 (stereo unspecified): 100 µg/mL
N#CCCSC1=NC(c2cccc(F)c2)=CC(c2cc3cc(Cl)ccc3nc2Cl)N1 (stereo unspecified): 250 µg/mL
N#CCCSC1=NC(c2ccc(Br)cc2)=CC(c2cc3cc(Cl)ccc3nc2Cl)N1 (stereo unspecified): 500 µg/mL
Cc1ccc(C2=CC(c3cc4cc(Cl)ccc4nc3Cl)NC(SCCC#N)=N2)cc1 (stereo unspecified): 25 µg/mL
N#CCCSC1=NC(c2cccc([N+](=O)[O-])c2)=CC(c2cc3cc(Cl)ccc3nc2Cl)N1 (stereo unspecified): 1000 µg/mL

Ask | Request the reported MIC associated with N#CCCSC1=NC(c2ccc(Cl)cc2)=CC(c2cc3cc(Cl)ccc3nc2Cl)N1 (stereo unspecified)
Reply | 500 µg/mL

Ask | What would you report for N#CCCSC1=NC(c2cccc(Br)c2)=CC(c2cc3cc(Cl)ccc3nc2Cl)N1 (stereo unspecified) ?
Reply | 1000 µg/mL

Ask | What would you report for COc1ccc(C2=CC(c3cc4cc(Cl)ccc4nc3Cl)NC(SCCC#N)=N2)cc1 (stereo unspecified) ?
Reply | 25 µg/mL

Ask | What would you report for Cc1cccc(C2=CC(c3cc4cc(Cl)ccc4nc3Cl)NC(SCCC#N)=N2)c1 (stereo unspecified) ?
Reply | 100 µg/mL

Ask | What would you report for N#CCCSC1=NC(c2ccc(O)cc2)=CC(c2cc3cc(Cl)ccc3nc2Cl)N1 (stereo unspecified) ?
Reply | 12.5 µg/mL

Ask | What would you report for O=C(O)c1cn(C2CC2)c2cc(N3CCNCC3)c(F)cc2c1=O [CIPROFLOXACIN] ?
Reply | 50 µg/mL

Ask | What would you report for N#CCCSC1=NC(c2ccc(F)cc2)=CC(c2cc3cc(Cl)ccc3nc2Cl)N1 (stereo unspecified) ?
Reply | 500 µg/mL

Ask | What would you report for N#CCCSC1=NC(c2ccccc2)=CC(c2cc3cc(Cl)ccc3nc2Cl)N1 (stereo unspecified) ?
Reply | 250 µg/mL
